# experimental.system: Sp SPT (Sphingomonas paucimobilis, UniProt Q93UV0)
# Construct: full-length soluble enzyme, pET28a, C-terminal His6 tag, E. coli BL21(DE3), Ni-NTA and gel filtration, homodimer ~90 kDa, PLP holoform
# Sequence (Q93UV0 1-420): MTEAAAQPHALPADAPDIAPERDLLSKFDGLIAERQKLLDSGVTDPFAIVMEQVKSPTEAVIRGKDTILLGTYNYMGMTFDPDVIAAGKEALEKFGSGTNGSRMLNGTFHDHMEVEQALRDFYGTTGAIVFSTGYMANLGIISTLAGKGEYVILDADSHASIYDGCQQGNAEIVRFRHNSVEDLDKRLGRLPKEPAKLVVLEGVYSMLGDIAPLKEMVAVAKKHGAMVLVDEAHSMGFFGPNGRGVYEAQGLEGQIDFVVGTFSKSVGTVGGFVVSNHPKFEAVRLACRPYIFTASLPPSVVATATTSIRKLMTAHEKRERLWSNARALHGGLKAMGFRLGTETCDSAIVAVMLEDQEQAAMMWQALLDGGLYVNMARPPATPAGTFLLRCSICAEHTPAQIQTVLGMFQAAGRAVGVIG
# protocol.summary: UV-visible titration, absorbance change at […] nm (external aldimine)
# run.parameters: read-out: Kd ^L-ser
recorded.endpoint: Kd (µM)
// units = µM; emit number, no label

Prompt line: Bench note: what Kd did N[C@@H](CO)C(=O)O [L-serine] show?
Response line: 1100
